All figures here come from PubChem BioAssay (NCI).

- assay-method-text: NCI Yeast Anticancer Drug Screen. Data for the rad50EPP+ strain (AID 151);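 also: 0% = growth of vehicle-treated control cultures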
- condition-details: S. cerevisiae rad50 mutant strain, at 1.2 µM, stronger effect = higher value
Compounds without any hit were thinned out: in the full panel of roughly 79,000, 15% have a hit.
metric-name: growth inhibition (%)
Response body: numeric value in %, unit text excluded.

molecule: COC(=O)CSc1nnc(CSc2ccc(Cl)cc2)n1-c1ccccc1
growth inhibition (%): -2

molecule: O=S(=O)(N/N=C/c1cccc(Cl)c1)c1ccccc1
growth inhibition (%): 4

molecule: CC[C@@]1(OC(=O)CCC(=O)O)C(=O)OCc2c1cc1n(c2=O)Cc2cc3ccccc3nc2-1
growth inhibition (%): 14

molecule: O=C(N/N=C\c1c(Cl)cccc1Cl)N/N=C/c1c(Cl)cccc1Cl
growth inhibition (%): 7

molecule: CCN(CC)N=Nc1c(C(N)=O)n[nH]c1C
growth inhibition (%): -2

The reported growth inhibition of the molecule "O=Cc1coc2ccccc2c1=O" was 2

# growth inhibition of "O=C1C=CC(=O)N1c1ccc(I)cc1" = 59

growth inhibition for "CCC(C)(c1ccc(O)c(C)c1)c1ccc(O)c(C)c1" is -31

// sample "O=C(NCCCCCN1CCC2(CCCCC2)CC1)C(C1CCCCC1)C1CCCCC1" , its growth inhibition was -1

Data point: "CCOC(=O)C1=C(C)NC(C)=C(C(=O)OCC)C1c1ccc(C)cc1" ; growth inhibition = -21
